Target: binding partner of C5A (XPA23)
Assay: Biacore, K-off
Quick reference for fold difference in affinity vs original among some binders
The answer is to be given in fold; state only the numeric part.

Use the examples below as a reference point.
C5A (XPA23) VH G100Y (antibody, V domains shown) VH: EVQLLESGGGLVQPGGSLRLSCAASGFTFSKYFMFWVRQAPGKGLEWVSVISPSGGMTRYADSVKGRFTISRDNSKNTLYLQMNSLRAEDTAVYYCARVYYGGNSDYWGQGTLVTVSS VL: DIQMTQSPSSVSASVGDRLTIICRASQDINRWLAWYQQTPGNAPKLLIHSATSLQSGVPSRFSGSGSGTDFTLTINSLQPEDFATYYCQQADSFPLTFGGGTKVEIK    0.09
C5A (XPA23) VH M57Y (antibody, V domains shown) VH: EVQLLESGGGLVQPGGSLRLSCAASGFTFSKYFMFWVRQAPGKGLEWVSVISPSGGYTRYADSVKGRFTISRDNSKNTLYLQMNSLRAEDTAVYYCARVGYGGNSDYWGQGTLVTVSS VL: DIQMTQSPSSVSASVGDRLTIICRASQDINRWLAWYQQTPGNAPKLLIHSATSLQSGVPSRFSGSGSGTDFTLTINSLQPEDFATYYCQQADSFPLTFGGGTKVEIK    0.86

Now turn to the next binder.
In one line, give reported fold difference in affinity vs original of the entry C5A (XPA23) VH I51S (antibody, V domains shown) VH: EVQLLESGGGLVQPGGSLRLSCAASGFTFSKYFMFWVRQAPGKGLEWVSVSSPSGGMTRYADSVKGRFTISRDNSKNTLYLQMNSLRAEDTAVYYCARVGYGGNSDYWGQGTLVTVSS VL: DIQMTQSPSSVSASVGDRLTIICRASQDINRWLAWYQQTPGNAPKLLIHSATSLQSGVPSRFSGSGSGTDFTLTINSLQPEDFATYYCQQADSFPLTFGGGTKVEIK .
0.69
